Where do these numbers come from? They come from patent US6117841A.

- assay_system: N-type Ca^2+ Channel (Homo sapiens)
- Construct: host or cells: IMR-32 cells differentiated with dibutyryl cAMP and bromodeoxyuridine
- Sequence (Q00975 whole entry): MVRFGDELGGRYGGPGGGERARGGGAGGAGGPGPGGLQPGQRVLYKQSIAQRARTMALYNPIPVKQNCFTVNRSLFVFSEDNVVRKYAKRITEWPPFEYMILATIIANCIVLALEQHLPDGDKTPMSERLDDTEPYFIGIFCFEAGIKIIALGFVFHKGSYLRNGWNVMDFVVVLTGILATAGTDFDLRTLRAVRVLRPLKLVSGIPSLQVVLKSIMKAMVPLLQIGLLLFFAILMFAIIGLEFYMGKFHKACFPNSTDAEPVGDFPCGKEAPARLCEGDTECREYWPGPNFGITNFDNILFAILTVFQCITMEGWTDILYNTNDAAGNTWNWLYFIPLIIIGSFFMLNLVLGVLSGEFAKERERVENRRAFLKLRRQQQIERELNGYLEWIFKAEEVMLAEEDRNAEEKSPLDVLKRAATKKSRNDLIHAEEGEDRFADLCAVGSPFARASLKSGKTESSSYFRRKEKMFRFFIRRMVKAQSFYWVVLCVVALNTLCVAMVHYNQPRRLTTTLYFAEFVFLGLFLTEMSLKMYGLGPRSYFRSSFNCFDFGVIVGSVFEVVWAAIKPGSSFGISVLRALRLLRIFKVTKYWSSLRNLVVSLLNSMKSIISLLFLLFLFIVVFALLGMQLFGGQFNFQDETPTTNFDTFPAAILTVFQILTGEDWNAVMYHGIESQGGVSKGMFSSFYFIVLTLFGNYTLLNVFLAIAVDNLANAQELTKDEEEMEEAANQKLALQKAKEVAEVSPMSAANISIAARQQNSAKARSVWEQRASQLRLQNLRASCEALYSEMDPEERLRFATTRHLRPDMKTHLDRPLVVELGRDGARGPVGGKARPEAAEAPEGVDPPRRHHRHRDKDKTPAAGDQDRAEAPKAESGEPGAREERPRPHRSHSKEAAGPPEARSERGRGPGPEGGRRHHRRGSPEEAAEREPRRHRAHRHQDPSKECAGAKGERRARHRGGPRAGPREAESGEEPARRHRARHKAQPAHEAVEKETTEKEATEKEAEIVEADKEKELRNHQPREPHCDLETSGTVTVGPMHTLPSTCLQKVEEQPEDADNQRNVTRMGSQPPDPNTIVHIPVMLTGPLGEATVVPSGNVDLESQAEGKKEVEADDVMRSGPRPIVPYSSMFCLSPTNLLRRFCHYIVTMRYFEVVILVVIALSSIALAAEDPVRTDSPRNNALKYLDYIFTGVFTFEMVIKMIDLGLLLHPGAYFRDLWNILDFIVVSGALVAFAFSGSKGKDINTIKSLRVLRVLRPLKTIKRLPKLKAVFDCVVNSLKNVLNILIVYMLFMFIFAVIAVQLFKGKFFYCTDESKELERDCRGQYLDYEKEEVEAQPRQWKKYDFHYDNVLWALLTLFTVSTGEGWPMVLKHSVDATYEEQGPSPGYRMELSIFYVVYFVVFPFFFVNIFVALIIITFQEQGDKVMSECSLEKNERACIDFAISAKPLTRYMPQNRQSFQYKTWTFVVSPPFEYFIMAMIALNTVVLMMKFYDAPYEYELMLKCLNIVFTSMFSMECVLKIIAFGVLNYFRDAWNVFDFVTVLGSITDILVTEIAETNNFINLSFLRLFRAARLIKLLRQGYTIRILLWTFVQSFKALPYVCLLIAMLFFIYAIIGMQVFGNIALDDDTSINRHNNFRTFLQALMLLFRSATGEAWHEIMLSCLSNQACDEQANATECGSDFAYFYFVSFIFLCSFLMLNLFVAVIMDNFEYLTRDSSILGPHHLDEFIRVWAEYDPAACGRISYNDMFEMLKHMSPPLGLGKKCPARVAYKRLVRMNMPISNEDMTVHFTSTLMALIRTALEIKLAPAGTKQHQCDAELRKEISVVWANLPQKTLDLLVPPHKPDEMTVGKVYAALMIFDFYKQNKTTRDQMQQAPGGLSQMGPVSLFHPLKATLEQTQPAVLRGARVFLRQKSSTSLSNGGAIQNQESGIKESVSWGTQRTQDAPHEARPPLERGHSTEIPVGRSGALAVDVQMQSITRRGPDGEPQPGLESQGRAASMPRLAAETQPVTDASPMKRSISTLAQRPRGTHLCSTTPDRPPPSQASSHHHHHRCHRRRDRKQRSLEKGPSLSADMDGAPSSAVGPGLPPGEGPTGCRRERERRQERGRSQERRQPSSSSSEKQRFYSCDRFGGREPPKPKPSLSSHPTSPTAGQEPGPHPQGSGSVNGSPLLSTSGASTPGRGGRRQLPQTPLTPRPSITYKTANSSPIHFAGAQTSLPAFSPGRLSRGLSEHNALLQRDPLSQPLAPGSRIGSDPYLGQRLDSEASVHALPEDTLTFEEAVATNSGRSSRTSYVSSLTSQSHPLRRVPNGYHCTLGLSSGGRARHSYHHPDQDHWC
- Sequence (P54284 whole entry partner): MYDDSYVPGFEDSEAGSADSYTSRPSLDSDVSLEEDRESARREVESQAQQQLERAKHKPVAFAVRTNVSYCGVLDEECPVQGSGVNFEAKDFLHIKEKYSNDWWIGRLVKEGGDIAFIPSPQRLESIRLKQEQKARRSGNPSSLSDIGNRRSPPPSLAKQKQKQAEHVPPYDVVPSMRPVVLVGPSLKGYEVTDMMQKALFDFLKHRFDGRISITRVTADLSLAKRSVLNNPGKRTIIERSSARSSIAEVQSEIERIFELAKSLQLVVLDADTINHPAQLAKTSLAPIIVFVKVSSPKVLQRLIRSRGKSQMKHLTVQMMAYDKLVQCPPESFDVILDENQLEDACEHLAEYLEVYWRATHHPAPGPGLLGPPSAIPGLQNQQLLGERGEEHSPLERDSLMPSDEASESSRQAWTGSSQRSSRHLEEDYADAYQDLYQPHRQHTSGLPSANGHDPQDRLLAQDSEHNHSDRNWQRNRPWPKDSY
- Sequence (P54289 25-946 partner limits assumed): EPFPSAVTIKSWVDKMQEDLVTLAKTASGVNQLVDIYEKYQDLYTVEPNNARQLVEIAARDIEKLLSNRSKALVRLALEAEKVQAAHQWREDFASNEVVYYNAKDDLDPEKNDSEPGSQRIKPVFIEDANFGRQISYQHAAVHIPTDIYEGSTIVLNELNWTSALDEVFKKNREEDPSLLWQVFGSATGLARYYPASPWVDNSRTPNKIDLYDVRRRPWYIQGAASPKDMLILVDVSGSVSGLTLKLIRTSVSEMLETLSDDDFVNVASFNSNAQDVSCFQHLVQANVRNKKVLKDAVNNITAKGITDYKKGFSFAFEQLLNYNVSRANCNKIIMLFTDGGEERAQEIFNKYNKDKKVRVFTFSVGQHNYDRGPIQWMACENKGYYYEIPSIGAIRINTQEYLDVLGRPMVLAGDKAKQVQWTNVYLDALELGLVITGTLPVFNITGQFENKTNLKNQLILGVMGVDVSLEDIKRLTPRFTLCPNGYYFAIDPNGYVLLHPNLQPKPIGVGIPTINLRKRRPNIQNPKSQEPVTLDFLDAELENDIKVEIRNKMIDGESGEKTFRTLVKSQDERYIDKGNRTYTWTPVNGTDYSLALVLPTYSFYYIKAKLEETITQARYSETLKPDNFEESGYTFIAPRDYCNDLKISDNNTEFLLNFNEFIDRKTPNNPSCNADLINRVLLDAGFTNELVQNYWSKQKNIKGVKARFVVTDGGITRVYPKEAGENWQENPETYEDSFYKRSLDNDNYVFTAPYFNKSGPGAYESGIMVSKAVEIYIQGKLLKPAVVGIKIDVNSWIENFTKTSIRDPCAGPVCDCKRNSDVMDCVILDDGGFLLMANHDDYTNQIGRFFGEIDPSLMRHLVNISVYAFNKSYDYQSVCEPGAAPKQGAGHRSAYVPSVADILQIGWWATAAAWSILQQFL
- Sequence (P54289 947-1103 partner limits assumed): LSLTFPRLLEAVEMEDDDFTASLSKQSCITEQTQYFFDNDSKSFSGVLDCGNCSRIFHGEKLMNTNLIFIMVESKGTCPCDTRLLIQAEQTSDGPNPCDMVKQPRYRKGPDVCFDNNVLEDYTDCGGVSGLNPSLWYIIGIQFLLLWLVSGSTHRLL
- protocol_description: Measurement of N-type Ca2+ channel blocking potencies in IMR-32 cells using the fluorescent Ca2+ indicator Indo-1
- Format: cell-based
- reported_conditions: IMR-32 cells, K+ depolarization, 5 μM nitrendipine to block L-type channels; read-out: IMR 32 IC50
pIC50: −log10 of the molar value.
The threshold is inclusive: pIC50 of exactly 6 counts as T; values below receive F.

Please review the entries below; each comes with its answer.
[
  {
    "molecule": "CC(C)CC(C(=O)NC(Cc1ccc(NCc2ccccc2)cc1)C(=O)NC(C)(C)C)N(C)Cc1ccc(C(C)(C)C)cc1 (stereo not shown)",
    "label": "T"
  },
  {
    "molecule": "CC(C)CCN(C)[C@@H](CC(C)C)C(=O)N[C@@H](Cc1ccc(OCc2ccccc2)cc1)C(=O)N1CCSCC1 (relative stereo)",
    "label": "T"
  },
  {
    "molecule": "CC(C)CC(C(=O)NC(Cc1ccc(OCc2ccccc2)cc1)C(=O)N1CCCCC1)N1CCOCC1 (stereo not shown)",
    "label": "F"
  },
  {
    "molecule": "CC(C)CCN(C)[C@@H](CC(C)C)C(=O)N[C@@H](Cc1ccc(OCc2ccccc2)cc1)C(=O)NCCN1CCCC1 (relative stereo)",
    "label": "F"
  },
  {
    "molecule": "CC(C)C[C@@H](C(=O)N[C@@H](Cc1ccc(OCc2ccccc2)cc1)C(=O)N1CCCCC1)N(C)CC1CCCCC1 (relative stereo)",
    "label": "T"
  },
  {
    "molecule": "CC(C)C[C@H](NC1CCOCC1)C(=O)N[C@@H](Cc1ccc(OCc2ccccc2)cc1)C(=O)NC1CCN(Cc2ccccc2)C1 (relative stereo)",
    "label": "T"
  },
  {
    "molecule": "COc1ccc(CN(C)[C@@H](CC(C)C)C(=O)N[C@@H](Cc2ccc(OCc3ccccc3)cc2)C(=O)NC(C)(C)C)cc1 (relative stereo)",
    "label": "T"
  },
  {
    "molecule": "CCCCN(C)[C@@H](CC(C)C)C(=O)N[C@@H](Cc1ccc(OCc2ccccc2)cc1)C(=O)NC(C)(C)C (relative stereo)",
    "label": "T"
  },
  {
    "molecule": "CC(C)C[C@@H](C(=O)N[C@@H](Cc1ccc(OCc2ccccc2)cc1)C(=O)NC(C)(C)C)N(C)CCC(C)(C)C (relative stereo)",
    "label": "T"
  },
  {
    "molecule": "CC(C)CCN(C)[C@@H](CC(C)C)C(=O)N[C@H](Cc1ccc(OCc2ccccc2)cc1)C(=O)NC(C)(C)C (relative stereo)",
    "label": "T"
  }
]

Item CC(C)CCN[C@@H](CC(C)C)C(=O)N[C@@H](Cc1ccc(OCc2ccccc2)cc1)C(=O)NC(C)(C)C (relative stereo) with pIC50 of 6 or above? T

Item CC(C)C[C@@H](C(=O)N[C@@H](Cc1ccc(OCc2ccccc2)cc1)C(=O)NC(C)(C)C)N(C)C1CCC(C)CC1 (relative stereo) with pIC50 of 6 or above? T

Item CC(C)C[C@@H](C(=O)N[C@@H](Cc1ccc(OCc2ccccc2)cc1)C(=O)NC(C)(C)C)N(C)C(C)C (relative stereo) with pIC50 of 6 or above? F

Item CN[C@@H](CC(C)C)C(=O)N[C@@H](Cc1ccc(OCc2ccccc2)cc1)C(=O)NC(C)(C)C (relative stereo) with pIC50 of 6 or above? F

Item CC(C)C[C@H](NCC1CCCCC1)C(=O)N[C@@H](Cc1ccc(OCc2ccccc2)cc1)C(=O)OC(C)(C)C (relative stereo) with pIC50 of 6 or above? T

Item CC(C)CC(NC1CCOCC1)C(=O)NC(Cc1ccc(OCc2ccccc2)cc1)C(=O)OC(C)(C)C (stereo not shown) with pIC50 of 6 or above? T

Item CC(C)CC(NCc1ccc(C(C)(C)C)cc1)C(=O)NC(Cc1ccc(OCc2ccccc2)cc1)C(=O)NC(C)(C)C (stereo not shown) with pIC50 of 6 or above? T

Item CCC(CO)(CO)NC(=O)C(Cc1ccc(OCc2ccccc2)cc1)NC(=O)C(CC(C)C)NC1CCOCC1 (stereo not shown) with pIC50 of 6 or above? F

Item CC(C)=CCNC(CC(C)C)C(=O)NC(Cc1ccc(OCc2ccccc2)cc1)C(=O)OC(C)(C)C (stereo not shown) with pIC50 of 6 or above? T
